The reported numbers originate from patent US11542492B2.

Below, each of the molecules is paired with its reported IC50 value.
# tgt: p110α/p85α (PI3Kα) (Homo sapiens)
# Construct: purchased BPS Bioscience or Millipore 40620 (BPS Bioscience) or 14-602 (Millipore)
# Sequence (P42336 whole entry): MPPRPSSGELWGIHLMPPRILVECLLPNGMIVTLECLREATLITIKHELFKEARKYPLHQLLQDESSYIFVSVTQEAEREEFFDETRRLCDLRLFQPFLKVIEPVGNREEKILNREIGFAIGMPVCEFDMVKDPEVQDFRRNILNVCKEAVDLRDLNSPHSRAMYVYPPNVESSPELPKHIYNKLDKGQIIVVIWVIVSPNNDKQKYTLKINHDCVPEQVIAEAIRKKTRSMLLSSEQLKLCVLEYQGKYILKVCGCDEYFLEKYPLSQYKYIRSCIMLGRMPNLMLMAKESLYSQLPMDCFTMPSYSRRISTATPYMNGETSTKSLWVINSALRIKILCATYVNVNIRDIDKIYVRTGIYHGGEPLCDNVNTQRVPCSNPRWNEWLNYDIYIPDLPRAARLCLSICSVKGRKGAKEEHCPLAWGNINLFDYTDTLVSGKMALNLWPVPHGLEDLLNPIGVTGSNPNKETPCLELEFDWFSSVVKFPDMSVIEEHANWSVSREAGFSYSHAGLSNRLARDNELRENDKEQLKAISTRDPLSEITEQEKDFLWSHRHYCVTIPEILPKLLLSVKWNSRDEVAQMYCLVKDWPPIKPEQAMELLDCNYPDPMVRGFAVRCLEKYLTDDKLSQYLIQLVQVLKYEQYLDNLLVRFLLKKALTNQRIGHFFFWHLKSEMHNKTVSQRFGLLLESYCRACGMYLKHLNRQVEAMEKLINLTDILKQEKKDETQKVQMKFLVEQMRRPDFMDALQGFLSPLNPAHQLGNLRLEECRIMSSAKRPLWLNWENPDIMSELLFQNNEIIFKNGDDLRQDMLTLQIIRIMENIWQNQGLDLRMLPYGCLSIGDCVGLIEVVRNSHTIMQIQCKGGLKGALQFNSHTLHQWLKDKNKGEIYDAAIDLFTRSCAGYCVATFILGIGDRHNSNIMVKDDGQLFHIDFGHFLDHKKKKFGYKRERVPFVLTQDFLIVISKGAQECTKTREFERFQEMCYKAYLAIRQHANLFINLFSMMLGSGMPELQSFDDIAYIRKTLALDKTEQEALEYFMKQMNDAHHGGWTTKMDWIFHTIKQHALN
# Sequence (P27986 whole entry partner): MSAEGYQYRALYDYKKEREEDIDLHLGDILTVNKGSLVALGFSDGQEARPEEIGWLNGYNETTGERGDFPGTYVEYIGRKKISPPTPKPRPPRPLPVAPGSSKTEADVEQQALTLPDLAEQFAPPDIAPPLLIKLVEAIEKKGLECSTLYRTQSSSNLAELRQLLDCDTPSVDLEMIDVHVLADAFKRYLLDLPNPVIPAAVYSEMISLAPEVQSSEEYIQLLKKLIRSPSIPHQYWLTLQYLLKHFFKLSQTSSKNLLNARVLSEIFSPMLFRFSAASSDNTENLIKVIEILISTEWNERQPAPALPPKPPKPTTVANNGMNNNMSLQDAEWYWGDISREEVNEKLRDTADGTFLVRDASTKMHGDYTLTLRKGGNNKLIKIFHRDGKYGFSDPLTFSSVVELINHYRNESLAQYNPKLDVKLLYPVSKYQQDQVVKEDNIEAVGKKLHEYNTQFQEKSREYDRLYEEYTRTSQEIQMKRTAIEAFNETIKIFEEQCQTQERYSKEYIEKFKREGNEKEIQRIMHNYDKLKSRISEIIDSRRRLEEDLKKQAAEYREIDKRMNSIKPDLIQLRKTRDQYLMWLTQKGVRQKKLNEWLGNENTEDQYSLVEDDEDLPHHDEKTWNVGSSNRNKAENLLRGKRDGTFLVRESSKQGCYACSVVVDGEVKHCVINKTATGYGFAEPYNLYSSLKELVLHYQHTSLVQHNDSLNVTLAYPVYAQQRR
# assay-comment: HTRF assay, p110α/p85α
# Type: biochemical
# stated-conditions: read-out: PI3Kα-HTRF-IC50 nM Inhibition Designation

molecule: C=CC(=O)N1CCN(Cc2cc3nc(-c4ccccc4)nc(N4CCOCC4)c3s2)CC1 [XXII-19]
IC50: 1000 to 10000 nM
//
molecule: O=C(N1CCN(Cc2cc3nc(-c4ccccc4)nc(N4CCOCC4)c3s2)CC1)n1ccnc1 [XXII-18]
IC50: 1000 to 10000 nM
//
molecule: O=C1O[C@H]2C[C@@H]1N(Cc1cc(O)cc(-c3nc(N4CCOCC4)c4sccc4n3)c1)C2 [XXII-20]
IC50: 100 to 1000 nM

* * *

# tgt: PDPK1 (Homo sapiens, UniProt O15530)
# Sequence (O15530 1-556): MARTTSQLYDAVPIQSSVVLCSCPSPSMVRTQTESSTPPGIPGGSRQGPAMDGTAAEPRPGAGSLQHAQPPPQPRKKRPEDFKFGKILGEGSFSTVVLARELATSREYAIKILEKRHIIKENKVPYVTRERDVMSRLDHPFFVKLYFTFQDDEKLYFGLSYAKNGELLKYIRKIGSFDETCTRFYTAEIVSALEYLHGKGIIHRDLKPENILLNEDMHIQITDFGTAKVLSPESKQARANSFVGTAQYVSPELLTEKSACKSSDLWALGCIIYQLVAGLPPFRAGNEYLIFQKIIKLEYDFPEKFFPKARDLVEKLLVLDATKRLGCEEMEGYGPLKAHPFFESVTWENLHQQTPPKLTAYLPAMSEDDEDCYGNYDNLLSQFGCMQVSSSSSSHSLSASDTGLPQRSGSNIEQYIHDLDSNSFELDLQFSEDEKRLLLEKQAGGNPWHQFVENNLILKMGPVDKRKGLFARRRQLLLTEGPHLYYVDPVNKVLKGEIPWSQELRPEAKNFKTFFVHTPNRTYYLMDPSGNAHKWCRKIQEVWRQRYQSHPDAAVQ
Below, each of the compounds is paired with its reported IC50 value.
observable: IC50

compound: CC(C)(C(N)=O)C(=O)NCCCNc1nc(Nc2cccc(NC(=O)[C@H]3CCC(=O)O3)c2)ncc1Br
observable: IC50
result: 10 to 100 nM
//
compound: CC(C)(C(N)=O)C(=O)NCCCNc1nc(Nc2cccc(NC(=O)CCC(=O)Oc3ccccc3)c2)ncc1Br
observable: IC50
result: < 10 nM
//
compound: CC(C)(C(N)=O)C(=O)NCCCNc1nc(Nc2cccc(NC(=O)CCC(=O)NC3CCSC3=O)c2)ncc1Br (stereo not drawn)
observable: IC50
result: 10 to 100 nM
//
compound: CC(C)(C(N)=O)C(=O)NCCCNc1nc(Nc2ccc(CCC(=O)N3C[C@H]4C[C@@H]3C(=O)O4)cc2)ncc1Br
observable: IC50
result: < 10 nM
//
compound: CC(C)(C(N)=O)C(=O)NCCCNc1nc(Nc2cccc(NC(=O)C3CC(=O)CC(=O)C3)c2)ncc1Br
observable: IC50
result: 10 to 100 nM
//
compound: CC(C)(C(N)=O)C(=O)NCCCNc1nc(Nc2cccc(NC(=O)C3CCSC3=O)c2)ncc1Br (stereo not drawn)
observable: IC50
result: 10 to 100 nM
//
compound: CC(C)(C(N)=O)C(=O)NCCCNc1nc(Nc2cccc(NC(=O)CNC(=O)C3CCSC3=O)c2)ncc1Br (stereo not drawn)
observable: IC50
result: 10 to 100 nM
//
compound: CC(C)(C(N)=O)C(=O)NCCCNc1nc(Nc2cccc(CCC(=O)N3C[C@H]4C[C@@H]3C(=O)O4)c2)ncc1Br
observable: IC50
result: 10 to 100 nM
//
compound: CC(C)(C(N)=O)C(=O)NCCCNc1nc(Nc2cccc(CCC(=O)N3C[C@@H]4C[C@H]3C(=O)O4)c2)ncc1Br
observable: IC50
result: 10 to 100 nM
//
compound: C=CC(=O)Nc1ccc(Nc2ncc(Br)c(NCCCNC(=O)C(C)(C)C(N)=O)n2)cc1
observable: IC50
result: 10 to 100 nM
//
compound: CC(C)(C(N)=O)C(=O)NCCCNc1nc(Nc2cccc(NC(=O)CNC(=O)C3CSC(=O)C3)c2)ncc1Br (stereo not drawn)
observable: IC50
result: 10 to 100 nM
//
compound: CC(C)(C(N)=O)C(=O)NCCCNc1nc(Nc2ccc(NC(=O)[C@@H]3CCC(=O)O3)cc2)ncc1Br
observable: IC50
result: 100 to 1000 nM
//
compound: CC(C)(C(N)=O)C(=O)NCCCNc1nc(Nc2cccc(NC(=O)C3CSC(=O)C3)c2)ncc1Br (stereo not drawn)
observable: IC50
result: < 10 nM
//
compound: CC(C)(C(N)=O)C(=O)NCCCNc1nc(Nc2cccc(NC(=O)CNC(=O)C3CCC(=O)S3)c2)ncc1Br (stereo not drawn)
observable: IC50
result: < 10 nM
//
compound: COC1=CC(=O)CC(C(=O)Nc2cccc(Nc3ncc(Br)c(NCCCNC(=O)C(C)(C)C(N)=O)n3)c2)C1 (stereo not drawn)
observable: IC50
result: 10 to 100 nM
